# Test system: Echinochloa crus-galli (ECHCG)
# PROTOCOL_NOTES: B3 Pre-Emergence Efficacy Test 1
# Type: in vivo
# STUDY_CONDITIONS: 250 g/ha, after 13 days
RECORDED_METRIC: percentage damage caused to the plant, five point scale, ECHCG

- MOLECULE: "CCc1nc2ccc(CCc3c(Cl)ccc(F)c3-c3c(O)c(C)nn(C)c3=O)cc2o1 [Compound 1.028]"
  MEAS_VALUE: "1 (1=0-19%)"
- MOLECULE: "Cc1nn(C)c(=O)c(-c2c(F)ccc(Cl)c2CCc2cc(C(F)(F)F)nc3ccccc23)c1O [Compound 1.027]"
  MEAS_VALUE: "3 (3=40-59%)"
- MOLECULE: "Cc1nn(C)c(=O)c(-c2c(F)ccc(Cl)c2CCc2ccc3c(c2)CCCN3)c1O [Compound 1.019]"
  MEAS_VALUE: "1 (1=0-19%)"
- MOLECULE: "Cc1ccc2cc(/C=C/c3c(Cl)ccc(F)c3-c3c(OC(=O)C(C)C)c(C)nn(C)c3=O)ccc2n1 [Compound 4.034]"
  MEAS_VALUE: 0
- MOLECULE: "Cc1ccc2cc(CCc3c(Cl)ccc(F)c3-c3c(OC(=O)C(C)C)c(C)nn(C)c3=O)ccc2n1 [Compound 3.034]"
  MEAS_VALUE: "5 (5=80-100%)"
- MOLECULE: "Cc1nn(C)c(=O)c(-c2c(F)ccc(Cl)c2CCc2ccnc3ccccc23)c1O [Compound 1.036]"
  MEAS_VALUE: "5 (5=80-100%)"
- MOLECULE: "Cc1nn(C)c(=O)c(-c2c(F)ccc(Cl)c2CCc2ccc3c(c2)CCC(C)N3)c1OC(=O)C(C)C (stereo not drawn) [Compound 3.030]"
  MEAS_VALUE: "5 (5=80-100%)"
- MOLECULE: "Cc1ccc2cc(/C=C/c3c(Cl)ccc(F)c3-c3c(O)c(C)nn(C)c3=O)ccc2n1 [Compound 2.034]"
  MEAS_VALUE: "1 (1=0-19%)"
- MOLECULE: "Cc1nn(C)c(=O)c(-c2c(F)ccc(Cl)c2/C=C/c2ccc3c(c2)OC(F)(F)O3)c1OC(=O)C(C)C [Compound 4.342]"
  MEAS_VALUE: 0

====

# System: Ipomoea hederacea (IPOHE)
# PROTOCOL_NOTES: B4 Pre-Emergence Efficacy Test 2
# Type: in vivo
# STUDY_CONDITIONS: 250 g/ha, after 13 days
Catalogue of percentage damage caused to the plant, five point scale, IPOHE readings, one per entry.
RECORDED_METRIC: percentage damage caused to the plant, five point scale, IPOHE

- SMILES_CODE: "Cc1nn(C)c(=O)c(-c2c(F)ccc(Cl)c2CCc2ccc3c(cnn3C)c2)c1O"
  MEAS_VALUE: "5 (5=80-100%)"
- SMILES_CODE: "Cc1nn(C)c(=O)c(-c2c(F)ccc(Cl)c2CCc2ccc3occc3c2)c1O"
  MEAS_VALUE: "3 (3=40-59%)"
- SMILES_CODE: "Cc1nn(C)c(=O)c(-c2c(F)ccc(Cl)c2/C=C/c2cn3ccnc3cn2)c1O"
  MEAS_VALUE: "5 (5=80-100%)"
- SMILES_CODE: "Cc1nn(C)c(=O)c(-c2c(F)ccc(Cl)c2CCc2ccc3c(c2)OC(C)(C)C3)c1O"
  MEAS_VALUE: "5 (5=80-100%)"
- SMILES_CODE: "Cc1nn(C)c(=O)c(-c2c(F)ccc(Cl)c2CCc2cccc3ccccc23)c1O"
  MEAS_VALUE: "3 (3=40-59%)"
